Target: pERK1/2 (Thr202/Tyr204), NCI-1H358 (KRAS G12C) (Homo sapiens, UniProt P01116, G12C)
Construct: pERK1/2 HTRF read-out
Sequence (P01116 1-188 isoform P01116-2 G12C): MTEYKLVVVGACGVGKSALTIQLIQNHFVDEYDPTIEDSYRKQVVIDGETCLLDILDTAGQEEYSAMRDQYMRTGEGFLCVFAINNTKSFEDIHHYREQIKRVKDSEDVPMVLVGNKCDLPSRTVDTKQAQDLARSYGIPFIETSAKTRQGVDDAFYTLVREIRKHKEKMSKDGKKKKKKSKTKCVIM
Experiment: Assay of intracellular pERK1/2 (Thr202/Tyr204) phosphorylation in NCI-H358 cells (KRAS G12C)
Format: cell-based
Conditions: pERK1/2, 2 days, read-out: NCI-H358 (KRAS G12C) IC50
Text: Example 2: Assay of intracellular pERK1/2 (Thr202/Tyr204)phosphorylation 1. […] Fluorescence ratio=fluorescence value665 nm/fluorescence value615 nm Inhibition rate (%)=100−((fluorescence ratio of compound well−fluorescence ratio of negative control well)/(fluorescence ratio of positive control well−fluorescence ratio of negative control well))×100 […]
measurement label: IC50 (nM)
Give the quantity in nM, number only.

Input line: What value of IC50 has been recorded for this entry: CC(c1cccnc1N)N1CCOc2nc(-c3cc(O)cc(F)c3C3CC3)c(F)c3nc(OC[C@@H]4CC(F)(F)CN4C)nc1c23 (single isomer, unassigned) [Compound 49]
Output line: 15

Input line: What value of IC50 has been recorded for this entry: CC(c1cccnc1N)N1CCOc2nc(-c3cc(O)cc(Cl)c3C(F)(F)F)c(F)c3nc(OC[C@@]45CCCN4C[C@H](F)C5)nc1c23 (single isomer, unassigned) [Compound 58]
Output line: 3

Input line: What value of IC50 has been recorded for this entry: [2H]C1([2H])CC[C@@]2(C([2H])([2H])Oc3nc4c5c(nc(-c6cc(N)c(F)c(C)c6C(F)(F)F)c(F)c5n3)OCCN4[C@@H](C)c3cccnc3N)C[C@@H](F)CN12 (single isomer, unassigned) [Compound 125]
Output line: 12

Input line: What value of IC50 has been recorded for this entry: CC(c1cccnc1N)N1c2nc(OC[C@@]34CCCN3C[C@H](F)C4)nc3c(F)c(-c4c(C(F)(F)F)cnc5[nH]ccc45)nc(c23)OC[C@@H]1C (stereo partly drawn) [Compound 323]
Output line: 0.6

Input line: What value of IC50 has been recorded for this entry: CC(c1cccnc1N)N1CCOc2nc(-c3cc(N)c(F)c(F)c3F)c(F)c3nc(OC[C@@]45CCCN4C[C@H](F)C5)nc1c23 (stereo partly drawn) [Compound 158]
Output line: 96

Input line: What value of IC50 has been recorded for this entry: CC(c1cccnc1N)N1CCOc2nc(-c3cc(O)cc4ccc(F)c(F)c34)c(F)c3ncnc1c23 (single isomer, unassigned) [Compound 30]
Output line: 31

Input line: What value of IC50 has been recorded for this entry: Cc1c(F)c(N)cc(-c2nc3c4c(nc(OC[C@@]56CCCN5C[C@H](F)C6)nc4c2F)N(C(C)c2cccnc2N)[C@@H](C)CO3)c1C(F)(F)F (single isomer, unassigned) [Compound 250]
Output line: 0.1

Input line: What value of IC50 has been recorded for this entry: Cc1cc(N)cc(-c2nc3c4c(nc(OC[C@@H]5CC(F)(F)CN5C)nc4c2F)N(C(C)c2cccnc2N)CCO3)c1C(F)(F)F (stereo partly drawn) [Compound 70]
Output line: 2

Input line: What value of IC50 has been recorded for this entry: [2H]C1([2H])Oc2nc(-c3cc(N)c(F)c(C)c3C(F)(F)F)c(F)c3nc(OC[C@@]45CCCN4C[C@H](F)C5)nc(c23)N(C(C)c2cccnc2N)C1([2H])[2H] (single isomer, unassigned) [Compound 200]
Output line: 7

Input line: What value of IC50 has been recorded for this entry: CC[C@@H](c1cccnc1N)N1CCOc2nc(-c3cc(N)c(F)c(C)c3C(F)(F)F)c(F)c3nc(OC[C@@]45CCCN4C[C@H](F)C5)nc1c23 (single isomer, unassigned) [Compound 213]
Output line: 13

Input line: What value of IC50 has been recorded for this entry: Cc1c(C(F)(F)F)c(-c2nc3c4c(nc(OCC5(CN(C)CCO)CC5)nc4c2F)N(C(C)c2cccnc2N)[C@@H](C)CO3)c2cn[nH]c2c1F (stereo partly drawn) [Compound 394]
Output line: 1

Input line: What value of IC50 has been recorded for this entry: CC(c1cccnc1N)N1c2nc(OC[C@@]34CCCN3C[C@H](F)C4)nc3c(F)c(-c4c5c(cc6[nH]ncc46)CCC(F)(F)C5)nc(c23)OC[C@@H]1C (stereo partly drawn) [Compound 376]
Output line: 0.4

Input line: What value of IC50 has been recorded for this entry: CC(c1cccnc1N)N1CCOc2nc(-c3c(C(F)(F)F)ccc4[nH]ncc34)c(F)c3nc(OC[C@@H]4CCN4CC(F)F)nc1c23 (stereo partly drawn) [Compound 25]
Output line: 7

Input line: What value of IC50 has been recorded for this entry: CC(c1cccnc1N)N1c2nc(OC[C@@]34CCCN3C[C@H](F)C4)nc3c(F)c(-c4cc5[nH]ncc5cc4C(F)(F)F)nc(c23)OC[C@@H]1C (stereo partly drawn) [Compound 325]
Output line: 28
